Test system: SW48 human colorectal cancer cells (MSI-H cancer cells)
Assay: SW48 cell viability, CellTiter-Glo, 120 hours (Example B)
Details: Homo sapiens, SW48, 120 h, read-out: SW48 pCC50, SW48 cell viability, 120 hours incubation (converted); Table 2
Where a name gives a salt, the structure may show the parent alone.
reported endpoint: CC50 (µM)
Please give a number only; it is taken to be in µM.

CN[C@H]1C[C@H](C(=O)Nc2ccc(C(F)(F)F)cc2F)[C@@H](C(=O)O)[C@H](c2ccc(N(C)S(=O)(=O)c3ccc4c(c3)nc(C)n4C)cc2)C1 (single isomer, unassigned) [Example 255] : 7.94
Cc1nc2cc(S(=O)(=O)N(C)c3ccc([C@@H]4C[C@@H]5COC[C@@H]5[C@H](C(=O)Nc5ccc(C(F)(F)F)cc5F)[C@H]4C(=O)O)cc3)ccc2n1C (stereo in doubt) [Example 391] : 20
Cc1nc2cc(S(=O)(=O)N(C)c3ccc([C@H]4CCC[C@@H](C(=O)Nc5ccc(C(F)(F)F)cc5F)[C@@H]4C(=O)O)cc3Cl)ccc2n1C [Example 296] : 1.58
N#Cc1ncc(-c2ccc([C@H]3CCC[C@@H](C(=O)Nc4ccc(C(F)(F)F)cc4F)[C@@H]3C(=O)O)cc2)cn1 [Example 54] : 7.94

GET /values?readout=CC50&item= Cc1nc2cc(S(=O)(=O)N(C)c3ccc([C@@H]4CCC[C@H](COc5ccc(C(F)(F)F)cc5)[C@H]4C(=O)O)cc3)cc([C@H]3CCCN(C)C3)c2n1C (single isomer, unassigned) [Example 212]
2

GET /values?readout=CC50&item= Cc1nc2cc(S(=O)(=O)N(C)c3ccc([C@H]4CCC[C@@H](C(=O)NC56CC(CC(F)(F)F)(C5)C6)[C@@H]4C(=O)O)cc3)ccc2n1C [Example 174]
10

GET /values?readout=CC50&item= Cc1nc2cc(S(=O)(=O)N(C)c3ccc([C@@H]4CCC[C@H](COc5ccc(C(F)(F)F)cc5)[C@H]4C(=O)O)cc3)cc([C@@H]3CCCN(C)C3)c2n1C (single isomer, unassigned) [Example 211, formic acid salt]
3.16

GET /values?readout=CC50&item= Cc1nc2cc(S(=O)(=O)N(C)c3ccc([C@@H]4C[C@H](OC[C@H]5CCOC5)C[C@H](C(=O)Nc5ccc(C(F)(F)F)cc5F)[C@H]4C(=O)O)cc3)ccc2n1C (stereo in doubt) [Example 318]
12.6

GET /values?readout=CC50&item= CN(c1ccc([C@H]2CCC[C@@H](C(=O)Nc3ccc(C(F)(F)F)cc3F)[C@@H]2C(=O)O)cc1)S(=O)(=O)c1cccc(C2CCNCC2)c1 [Example 261]
1

GET /values?readout=CC50&item= CC(=O)N(C)[C@@H]1C[C@H](c2ccc(N(C)S(=O)(=O)c3ccc4c(c3)nc(C)n4C)cc2)[C@@H](C(=O)O)[C@H](C(=O)Nc2ccc(C(F)(F)F)cc2F)C1 (stereo in doubt) [Example 292]
0.794

* * *

Test system: SW48 human colorectal cancer cells
Test: Calculated free drug potency in SW48 cell assay, corrected with media free fraction (Example C)
Type: cell-based
Details: Homo sapiens, SW48, SW48 pCC50 corrected with measured free fraction in cell assay media
reported endpoint: CC50 (nM)
Please give a number only; it is taken to be in nM.

Cc1nc2cc(S(=O)(=O)N(C)c3ccc([C@H]4C[C@@H](OCC5CC5)C[C@@H](C(=O)Nc5ccc(C(F)(F)F)cc5F)[C@@H]4C(=O)O)cc3)ccc2n1C (stereo in doubt) : 12.6
CCO[C@@H]1C[C@H](c2ccc(N(C)S(=O)(=O)c3ccc4c(c3)nc3n4CCCC3)cc2)[C@@H](C(=O)O)[C@H](C(=O)Nc2ccc(C(F)(F)F)cc2F)C1 : 10

GET /values?readout=CC50&item= CN(c1ccc([C@H]2CCC[C@@H](C(=O)Nc3ccc(C(F)(F)F)cc3F)[C@@H]2C(=O)O)cc1)S(=O)(=O)c1ccc2c(c1)ncn2C (single isomer, unassigned)
11.7

GET /values?readout=CC50&item= Cc1nc2cc(S(=O)(=O)N(C)c3ccc([C@H]4C[C@@H](OC(C)C)C[C@@H](C(=O)Nc5ccc(C(F)(F)F)cc5F)[C@@H]4C(=O)O)cc3)ccc2n1C (stereo in doubt)
21.4

GET /values?readout=CC50&item= CC(=O)N1C[C@H](c2ccc(N(C)S(=O)(=O)c3ccc4c(c3)nc(C)n4C)cc2)[C@@H](C(=O)O)[C@H](C(=O)Nc2ccc(C(F)(F)F)cc2F)C1 (stereo in doubt)
437
